# Test system: human plasma protein
# test-description: Human plasma protein binding by ultracentrifugation
# Assay type: in vitro ADME
# measurement-setup: ultracentrifugation 4.2 hours at 37°C
Entries annotated with measured Human plasma protein binding
readout-label: Human plasma protein binding

- Clc1ccc2c(N3CCN(CCCN4CCN(c5ccnc6cc(Cl)ccc56)CC4)CC3)ccnc2c1: 98.6 % bound
- OC(c1cc(C(F)(F)F)nc2c(C(F)(F)F)cccc12)C1CCCCN1 (stereo not shown): 95.6 % bound
- CO[C@H]1O[C@@H]2O[C@@]3(C)CC[C@H]4[C@H](C)CC[C@@H]([C@H]1C)[C@@]24OO3: 91.7 % bound
- CCCCN(CCCC)CC(O)c1cc(Cl)cc2c1-c1ccc(Cl)cc1/C2=C/c1ccc(Cl)cc1 (stereo not shown): 98.7 % bound

----------
# measured-on: 0.5% Albumax in RPMI (Bos taurus, UniProt P02769)
# Sequence (P02769 25-607): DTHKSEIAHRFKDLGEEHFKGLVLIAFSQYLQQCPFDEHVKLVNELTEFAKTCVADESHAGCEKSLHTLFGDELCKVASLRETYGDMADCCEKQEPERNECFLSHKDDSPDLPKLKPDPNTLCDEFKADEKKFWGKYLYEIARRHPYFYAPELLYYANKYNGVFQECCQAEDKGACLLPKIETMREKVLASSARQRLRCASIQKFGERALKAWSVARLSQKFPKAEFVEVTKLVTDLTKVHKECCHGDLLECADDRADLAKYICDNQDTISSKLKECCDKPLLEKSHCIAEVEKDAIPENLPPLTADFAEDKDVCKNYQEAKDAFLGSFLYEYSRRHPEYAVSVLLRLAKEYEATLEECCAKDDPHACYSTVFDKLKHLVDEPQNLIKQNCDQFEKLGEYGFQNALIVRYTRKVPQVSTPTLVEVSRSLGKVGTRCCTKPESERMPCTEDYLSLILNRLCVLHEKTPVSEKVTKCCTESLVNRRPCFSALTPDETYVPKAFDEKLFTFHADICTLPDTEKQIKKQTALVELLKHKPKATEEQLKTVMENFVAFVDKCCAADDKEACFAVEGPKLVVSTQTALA
# test-description: Binding to in vitro testing media by ultracentrifugation
# Assay type: in vitro ADME
# measurement-setup: ultracentrifugation 4.2 hours at 37°C
readout-label: Binding to media of in vitro experiment (0.5% Albumax) (% bound)

• Clc1ccc2c(N3CCN(CCCN4CCN(c5ccnc6cc(Cl)ccc56)CC4)CC3)ccnc2c1 = 98.1
• CO[C@H]1O[C@@H]2O[C@@]3(C)CC[C@H]4[C@H](C)CC[C@@H]([C@H]1C)[C@@]24OO3 = 82.8
• OC(c1cc(C(F)(F)F)nc2c(C(F)(F)F)cccc12)C1CCCCN1 (stereo not shown) = 85
• CCCCN(CCCC)CC(O)c1cc(Cl)cc2c1-c1ccc(Cl)cc1/C2=C/c1ccc(Cl)cc1 (stereo not shown) = 99.6

----------
Entries annotated with measured blood plasma ratio at 2 min
# test-description: Whole blood to plasma partitioning ratio (B/P)
# Type: in vitro ADME
# measurement-setup: human, whole blood and plasma; 37°C, 2 min incubation
readout-label: blood plasma ratio at 2 min

- CCCCN(CCCC)CC(O)c1cc(Cl)cc2c1-c1ccc(Cl)cc1/C2=C/c1ccc(Cl)cc1 (stereo not drawn) [LF, lumefantrine]: 0.8
- Clc1ccc2c(N3CCN(CCCN4CCN(c5ccnc6cc(Cl)ccc56)CC4)CC3)ccnc2c1 [PQ, piperaquine]: 0.9
- CO[C@H]1O[C@@H]2O[C@@]3(C)CC[C@H]4[C@H](C)CC[C@@H]([C@H]1C)[C@@]24OO3 [ART, artemether]: 0.8
